So I've got a bunch of molecules here, and I need their growth values.
# Test system: ACHN renal
# assay info: NCI-60 one-dose screen, 48 h (100 = growth as untreated, 0 = no growth, -100 = all killed)
# condition details: 10 µM
The panel holds about 83,000 compounds, 20% with a hit somewhere; the sample as a whole holds those more often.
# value in %; strip the unit string

Query string: Report growth for `CN(C)CCCOc1ccccc1NC1=C(Cl)C(=O)C(Nc2ccccc2OCCCN(C)C)=C(Cl)C1=O` please.
Result string: -98

Query string: Moving on to the next molecule: CCN(CC)CCCC(C)N=C(C1=C(C(=NC(C)CCCN(CC)CC)c2cccc(OC)c2)C(=O)NC1=O)c1cccc(OC)c1 (stereo unspecified)
Result string: -64

Query string: Moving on to the next molecule: COC(=O)C1OC1c1cc([N+](=O)[O-])ccc1OC (stereo unspecified)
Result string: 108

Query string: Moving on to the next molecule: `COc1ccc(-c2nn(-c3cccc(Cl)c3)cc2-c2nc(N)[nH]c(=O)c2C#N)cc1`
Result string: 87.5

Query string: Moving on to the next molecule: CC[C@@H](C(=O)[C@@H](C)[C@@H](O)[C@H](C)[C@@H]1O[C@@H]([C@@H](CC)C(=O)O)CC[C@@H]1C)C1O[C@]2(C=CC(=O)[C@]3(CC[C@@](C)([C@H]4CC[C@](O)(CC)[C@H](C)O4)O3)O2)[C@H](C)C[C@@H]1C (stereo partly specified)
Result string: 31.6

Query string: Moving on to the next molecule: Cc1cc(CC(C)CC(C)(C)C)n(O)c(=O)c1 (stereo unspecified) (tested in a mixture with another compound)
Result string: 9.73

Query string: Moving on to the next molecule: `Cc1ccc(NC(=O)N2CCCCC2)cc1[N+](=O)[O-]`
Result string: 95

Query string: Moving on to the next molecule: COC1=CC(=O)OC(c2ccc(OC)cc2)C1 (stereo unspecified)
Result string: 103

Query string: Moving on to the next molecule: `COc1cc(-c2nn(-c3cccc(NC(=O)CCNc4ccc(N5CCOCC5)cc4)c3)cc2-c2ccncc2)ccc1Cl`
Result string: 15.8

Query string: Moving on to the next molecule: `COc1cc(-c2nn(-c3cccc(NC(=O)NCCNS(=O)(=O)c4ccc(Cl)cc4)c3)cc2-c2ccncc2)ccc1Cl`
Result string: 11.3

Query string: Moving on to the next molecule: `CC(=O)COc1ccc(Cl)cc1Cl`
Result string: 116

====

# System: CAKI-1 renal
# assay info: NCI-60 one-dose screen, 48 h (100 = growth as untreated, 0 = no growth, -100 = all killed)
# condition details: 10 µM
This is part of a sample that, as a whole, favours compounds with a hit. Of some 83,000 tested, about 20% had one in any assay.
Classify on growth using low = under 20%, middle = from 20% up to 60%, high = 60% and over

Query string: Please classify: `CC(C)(C)OC(=O)N1CCc2c(sc3ncnc(N/N=C/c4cccc5ccccc45)c23)C1`
Result string: middle

Query string: Moving on to the next compound: `C=CCn1c(SCC(=O)Nc2ccc(C(=O)/C=C/c3cc(OC)c(OC)c(OC)c3)cc2)nnc1-c1cc(-c2ccc(Cl)cc2)nc2ccccc12`
Result string: high

Query string: Moving on to the next compound: `COc1ccc(-c2cc(-c3ccc(Cl)cc3)nc(SCCCC(=O)NO)n2)cc1OC`
Result string: low

Query string: Moving on to the next compound: `O=c1cn[nH]c2ccc(Br)cc12`
Result string: high

Query string: Moving on to the next compound: `COc1cc2c3c(n([C@H]4CCOC4)c(=O)c2cc1OC)-c1cc2c(cc1C3=O)OCO2`
Result string: middle

Query string: Moving on to the next compound: `C=C/C(C)=C/C[C@]1(C)[C@H](C)[C@@H](OC(=O)CCC)[C@H](O)[C@@]23C(=C[C@H](OC)C[C@@H]12)[C@@H](OC(=O)CCC)O[C@H]3OC(C)=O`
Result string: low

Query string: Moving on to the next compound: `Cc1ccc(/C=C2/C(=O)N(C)c3ccc(S(=O)(=O)Nc4ccc(C(C)(C)C)cc4)cc32)s1`
Result string: middle

Query string: Moving on to the next compound: `COc1ccc(-c2nn(-c3cccc(Cl)c3)cc2-c2cc(-c3cccs3)[nH]c(=S)n2)cc1`
Result string: low

Query string: Moving on to the next compound: `COc1cc(Cc2cc(-c3ccccc3)n[nH]c2=O)cc(OC)c1OC`
Result string: high

Query string: Moving on to the next compound: `Cc1ccc(-n2nnnc2N)c(C)c1`
Result string: high

Query string: Moving on to the next compound: `C/C(=N\O)c1ccc(NC(=O)CSc2nnc(-c3ccccc3)n2-c2ccccc2)cc1`
Result string: high

Query string: Moving on to the next compound: `COc1ccc(-c2nn(-c3cccc(Cl)c3)cc2-c2cc(-c3ccccc3)[nH]c(=O)c2C#N)cc1`
Result string: middle

Query string: Moving on to the next compound: `CCCCc1oc2ccccc2c1C(=O)c1cc(I)c(OCCN(CC)CC)c(I)c1`
Result string: low

====

# Test system: SR leukemia
# assay info: NCI-60 one-dose screen, 48 h (100 = growth as untreated, 0 = no growth, -100 = all killed)
# condition details: 10 µM
Compounds without any hit were thinned out: in the full panel of roughly 83,000, 20% have a hit.
So I've got a bunch of compounds here, and I need their growth values.
# value in %; strip the unit string

Query string: Report growth for `CC(=O)OC/C=C(/C)C[P+](c1ccccc1)(c1ccccc1)c1ccccc1` please.
Result string: 64.9

Query string: Moving on to the next compound: `CC(=O)Nc1ccc(S(=O)(=O)c2ccnc3cc(Cl)ccc23)cc1`
Result string: 83.3

Query string: Moving on to the next compound: `CCn1c(SCCc2ccccc2)nnc1-c1nn(-c2ccc(Cl)cc2Cl)c(-c2ccc(Cl)cc2)c1C`
Result string: 37.6

Query string: Moving on to the next compound: `CCOC(=O)CN(c1sc(C)c(C)c1C(=O)OCC)S(=O)(=O)c1ccc(C)cc1`
Result string: 96.9

Query string: Moving on to the next compound: CC(CN(C)C)Oc1ccccc1NC1=C(Cl)C(=O)C(Nc2ccccc2OC(C)CN(C)C)=C(Cl)C1=O (centres undefined)
Result string: -9.43

Query string: Moving on to the next compound: `O=C(CSc1nnc(-c2cccnc2SCc2ccccc2)o1)Nc1nc(Cl)cc(Cl)n1`
Result string: 101

Query string: Moving on to the next compound: Cc1cc(C(C#N)c2ccc(Cl)cc2)c(Cl)cc1NC(=O)c1cc(I)cc(I)c1O (centres undefined)
Result string: 27.6

Query string: Moving on to the next compound: `O=C1NC(=O)c2c(CCCSc3nc4ccccc4c(=O)n3CCc3ccccc3)cccc21`
Result string: 66.6

Query string: Moving on to the next compound: `COc1ccc(C(=O)N/N=C/c2cc(C(F)(F)F)ccc2Cl)cc1`
Result string: 102

Query string: Moving on to the next compound: `Cc1ccc2nc(Cl)c(-c3nc4ccccc4o3)cc2c1`
Result string: 88.6

Query string: Moving on to the next compound: `COC(=O)c1cc2oc(/C=C3/SC(=S)N(N)C3=O)cc2n1Cc1ccccc1`
Result string: 20.8

Query string: Moving on to the next compound: `O=C(CCCCC(=O)Oc1c(Cl)cc(Cl)cc1[N+](=O)[O-])Oc1c(Cl)cc(Cl)cc1[N+](=O)[O-]`
Result string: 85.4

Query string: Moving on to the next compound: `Nc1ncc(-c2cnn(C3CCNCC3)c2)cc1-c1nc2ccccc2o1`
Result string: -74.7

Query string: Moving on to the next compound: `O=C(NCCCNS(=O)(=O)c1ccc(Cl)cc1)Nc1ccc(-n2cc(-c3ccncc3)c(-c3ccc(Cl)c(O)c3)n2)cc1`
Result string: 17

Query string: Moving on to the next compound: `O=C(N/N=C/c1ccc(Cl)cc1)c1ccc(Cc2n[nH]c(=O)c3cccnc23)cc1`
Result string: 135

Query string: Moving on to the next compound: `Cc1c2cnccc2c(C)c2c1c1cc(O)ccc1n2C(C)C`
Result string: -17.1

Query string: Moving on to the next compound: `CC(C)(C)OC(=O)CN1CCc2c(sc3ncnc(N/N=C/c4cccc5ccccc45)c23)C1`
Result string: 18.2

Query string: Moving on to the next compound: `O=C(Nc1cc([N+](=O)[O-])c2[nH]c(=O)c3ccccc3c2c1)C(F)(F)F`
Result string: 52.3

Query string: Moving on to the next compound: COc1cc(/C=C2\CCCC3C2=Nc2ccccc2NC3c2cc(OC)c(OC)c(OC)c2)cc(OC)c1OC (centres undefined)
Result string: 2.76

Query string: Moving on to the next compound: `COc1cc2c(Nc3ccc(-c4ccc(N)cc4)cc3)ncnc2c(OC)c1OC`
Result string: 31.8

Query string: Moving on to the next compound: `Nc1nccc(OCCO)n1`
Result string: 95.9

Query string: Moving on to the next compound: `O=C(/C=C/C=C/c1c(C2CC2)nc2ccccc2c1-c1ccc(F)cc1)c1cccs1`
Result string: -6.7

Query string: Moving on to the next compound: `COc1cc2cc(Oc3ccc(NC(=O)c4ccccc4)cc3)c(C)nc2cc1OC`
Result string: 70.2

Query string: Moving on to the next compound: `CN(C)CCCN1c2ccccc2CCc2ccc(Cl)cc21`
Result string: 49.2

Query string: Moving on to the next compound: CC1/C=C/C=C/C=C/C=C/C=C/C=C/C=C/C(O[C@@H]2O[C@H](C)[C@H](O)[C@@H](O)[C@@H]2N)CC(O)C(C(=O)O)C(O)CC(=O)CC(O)CC(O)CC(O)CC(=O)CCCC(=O)CC(=O)OC1C(C)CC(C)C(O)CC(=O)c1ccc(N)cc1 (some centres undefined)
Result string: -63.1

Query string: Moving on to the next compound: COc1ccc(/C=C2\CCCC3=C2NC(N)=NC3c2ccc(OC)cc2)cc1 (centres undefined)
Result string: 81.9

Query string: Moving on to the next compound: `C#CCOc1c(OC)cc(C(=O)/C(C)=C/c2cccc(N=[N+]=[N-])c2)cc1OC`
Result string: 28.7

Query string: Moving on to the next compound: `COc1ccc2cc(-c3nc4ccccc4s3)c(Cl)nc2c1OC`
Result string: 87.6

Query string: Moving on to the next compound: CCC(=O)OC1CCC2C3CCC(=O)OC3C(C)(CCC(=O)O)CC12C (centres undefined)
Result string: -21.1
